Hey, just so you know, these numbers are from paper PMC10500007.

target: recombinant human integrin αvβ8 headpiece (Expi293F) (human, UniProt P06756); test: ELISA; competition with hLAP1
Sequence (P06756 whole entry, looked up): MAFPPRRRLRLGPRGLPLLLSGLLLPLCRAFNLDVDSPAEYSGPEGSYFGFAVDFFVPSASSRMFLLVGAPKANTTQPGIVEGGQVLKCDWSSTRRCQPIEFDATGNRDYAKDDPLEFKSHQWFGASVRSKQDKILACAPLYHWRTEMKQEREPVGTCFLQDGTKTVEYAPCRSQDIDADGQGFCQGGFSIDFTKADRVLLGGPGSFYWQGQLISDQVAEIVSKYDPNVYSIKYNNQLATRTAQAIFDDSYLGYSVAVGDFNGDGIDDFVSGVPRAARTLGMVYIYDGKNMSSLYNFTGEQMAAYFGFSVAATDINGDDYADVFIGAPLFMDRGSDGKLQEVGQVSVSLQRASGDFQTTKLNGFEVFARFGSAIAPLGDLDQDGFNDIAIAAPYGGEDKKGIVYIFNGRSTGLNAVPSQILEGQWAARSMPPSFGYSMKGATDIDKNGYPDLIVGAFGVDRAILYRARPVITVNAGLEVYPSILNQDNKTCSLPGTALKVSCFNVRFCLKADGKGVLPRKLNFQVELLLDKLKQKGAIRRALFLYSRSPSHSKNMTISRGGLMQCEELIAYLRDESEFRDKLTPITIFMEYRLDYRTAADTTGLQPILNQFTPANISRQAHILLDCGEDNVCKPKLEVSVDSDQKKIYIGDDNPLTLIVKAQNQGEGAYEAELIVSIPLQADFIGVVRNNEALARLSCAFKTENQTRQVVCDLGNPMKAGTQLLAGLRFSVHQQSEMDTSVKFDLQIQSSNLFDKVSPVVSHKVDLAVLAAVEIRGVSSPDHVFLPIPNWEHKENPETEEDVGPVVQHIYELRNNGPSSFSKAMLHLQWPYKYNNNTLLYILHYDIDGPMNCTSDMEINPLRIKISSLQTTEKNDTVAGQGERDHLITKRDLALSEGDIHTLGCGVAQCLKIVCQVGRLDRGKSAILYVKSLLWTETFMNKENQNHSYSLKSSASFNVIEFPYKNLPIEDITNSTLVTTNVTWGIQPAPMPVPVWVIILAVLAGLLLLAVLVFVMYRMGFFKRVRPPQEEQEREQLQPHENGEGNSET
pIC50: −log10 of the molar value.
MEASURED ATTRIBUTE: pIC50

Problem: # lookup: pIC50 of B6_BP_dslf (designed binder) TKCVVRFVFRGDLAELMLRAVKDHLKKEGPHWNITSTNNGKELVVRGIHESDAKRIAKWVEKRFPRVHTETQCD
Result: ~7.10
